This section presents binders with their documented % binding (EMAX) compared to WT MET values.
Molecular target: human MET ECD mutant D (mutations 1, 2) (human) (UniProt P08581)
Assay: ELISA, MET ECD in solid phase, mAb 0-50 nM
State just the number; it will be interpreted in % WT MET ECD.

71C3 chimeric llama-human IgG1 mAb (antibody, V domains shown, llama VH on human IgG1 CH1-CH2-CH3, llama VL on human lambda CL) VH: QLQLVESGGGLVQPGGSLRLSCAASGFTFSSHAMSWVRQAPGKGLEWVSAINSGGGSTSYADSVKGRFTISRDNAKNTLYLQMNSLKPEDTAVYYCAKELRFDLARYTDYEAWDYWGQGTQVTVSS VL: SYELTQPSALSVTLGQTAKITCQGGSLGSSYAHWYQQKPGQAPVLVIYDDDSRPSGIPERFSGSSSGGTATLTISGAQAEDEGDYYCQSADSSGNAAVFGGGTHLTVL    102

Would you kindly look at the next entry?
IN: State its % binding (EMAX) compared to WT MET for this binder: 71G2 chimeric llama-human IgG1 mAb (antibody, V domains shown, llama VH on human IgG1 CH1-CH2-CH3, llama VL on human lambda CL) VH: EVQLQESGGGLVQPGGSLRLSCAASGFTFSIYDMSWVRQAPGKGLEWVSTINSDGSSTSYVDSVKGRFTISRDNAKNTLYLQMNSLKPEDTAVYYCAKVYGSTWDVGPMGYGMDYWGKGTLVTVSS VL: SSALTQPSALSVSLGQTARITCQGGSLGSSYAHWYQQKPGQAPVLVIYGDDSRPSGIPERFSGSSSGGTATLTISGAQAEDEDDYYCQSTDSSGNTVFGGGTRLTVL
OUT: 114
